- System: T-47D spheroids with HUVEC/MSC, viability
- Procedure summary: Anticancer human tumor T-47D cell line growth inhibition [PI3K];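 also: spheroids exposed to agents for seven days before reading; percent of DMSO vehicle control luminescence so 100% = untreated growth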
- Condition info: second compound 1 µM; first compound 1 µM; hits give low values
Reported viability, T/C is given for each of the following molecules.
Quick note: give the figure in %, leave out the unit.

>  <Molecule>
CCCS(=O)(=O)Nc1ccc(F)c(C(=O)c2c[nH]c3ncc(-c4ccc(Cl)cc4)cc23)c1F + CC(Nc1ccc2c(c1)OCCn1cc(N3C(=O)OCC3C(F)F)nc1-2)C(N)=O

>  <viability, T/C, %>
51.5

$$$$
>  <Molecule>
CCN1CCN(Cc2ccc(Nc3ncc(F)c(-c4cc(F)c5nc(C)n(C(C)C)c5c4)n3)nc2)CC1 + COc1c(OCCCN2CCOCC2)ccc2c3n(c(=NC(=O)c4cnc(N)nc4)nc12)CCN3

>  <viability, T/C, %>
24.2

$$$$

Enquiry: Determine its reported viability, T/C: C[C@@H](NC(=O)c1ncnc(N)c1Cl)c1ncc(C(=O)Nc2cc(C(F)(F)F)c(Cl)cn2)s1 + COc1c(OCCCN2CCOCC2)ccc2c3n(c(=NC(=O)c4cnc(N)nc4)nc12)CCN3
Return: 4.08
